Protocol Text: Human HepG2 cell viability assay in 384 well format
Assay type: toxicity, cell-based
Design: dose 125 nL, time 70.5 hour; concentration not given beside the values
Particulars: HepG2 cells, read-out: Inhibition
In this section we review reported cytotoxicity at 70.5 h values for a set of compounds.
Answer as a quantity: numeral, then unit.

Compound	cytotoxicity at 70.5 h
CCCc1nn(C2CCN(C3CC3)C2=O)c(=O)o1 (stereo not given)	-5.48%
O=C(c1cc2cc(F)ccc2[nH]1)N1CCCCC1Cn1cccn1 (stereo not given)	-0.801%
O=C(c1ccc(Cl)s1)N1CCC2(COc3ncccc3S(=O)(=O)N2)C1 (stereo not given)	-8.51%

## Input Sample CN(CCOc1ccc(C#N)cc1)CC1CCS(=O)(=O)C1 (stereo not given) — what was its cytotoxicity at 70.5 h?
## Output -9.8%

## Input May I ask what cytotoxicity at 70.5 h has been recorded for Cc1ccc(CN2C[C@H](OCCN(C)C)[C@H]3OCCC[C@H]32)o1 ?
## Output 3.05%

## Input Quick check: cytotoxicity at 70.5 h of CC(C)(C)OC(=O)NCC(=O)NCc1ccc(Cl)s1 ?
## Output -0.913%

## Input Name the recorded cytotoxicity at 70.5 h for CNC(=O)c1cn[nH]c1C1CCN(Cc2ccccc2F)C1 (stereo not given) .
## Output -3.84%

## Input Entry Cc1ncoc1C(=O)N1CCc2[nH]nc(-c3ccc4c(c3)OCO4)c2C1 has what cytotoxicity at 70.5 h?
## Output 16.8%
